Property: LD50; scope: individual compounds
Assay: Acute toxicity, oral route, method of Litchfield and Wilcoxon
Condition description: in vivo, rat, os
Experimental readout: LD50

O=C(Nc1c(Br)cc(Br)cc1CN[C@H]1CC[C@H](O)CC1)c1cccs1 [PU 163]    > 5000 mg/kg
Nc1c(Br)cc(Br)cc1CN[C@H]1CC[C@H](O)CC1 [Ambroxol, reference compound]    > 5000 mg/kg

Origin of measurements: patent EP0150787A2
